Data provenance: patent US11267811B2

# measurement-target: His-tagged recombinant human Gal-3 (hGal-3) (Homo sapiens (Human))
# experimental-protocol: Gal-3 HTRF assay (His-tagged hGal-3 binding to B-ASF)
# measurement-parameters: HTRF, hGal-3 15 nM, B-ASF 15 nM; read-out: hGal-3 IC50
quantity-name: IC50 (nM)

Look over these answered cases.
**Query** Fill in IC50 for record OC[C@H]1O[C@@H](c2nncn2-c2ccc3ccncc3c2)[C@H](O)[C@@H](n2cc(-c3cc(F)c(F)c(F)c3)nn2)[C@H]1O [Example 126]
**Result** 270

**Query** Quote IC50 reported for CO[C@@H]1[C@@H](n2cc(-c3cc(F)c(F)c(F)c3)nn2)[C@@H](O)[C@@H](CO)O[C@H]1c1nncn1-c1ccc2nc(C)sc2c1 [Example 282] please.
**Result** 30

**Query** Please report IC50 for the following compound: OC[C@H]1O[C@@H](n2nncc2-c2ccccc2)[C@H](O)[C@@H](n2cc(-c3cc(F)c(F)c(F)c3)nn2)[C@H]1O [Example 3]
**Result** 617

**Query** For the compound CN(C)S(=O)(=O)c1ccc(-n2cnnc2[C@@H]2O[C@H](CO)[C@H](O)[C@H](n3cc(-c4cc(F)c(F)c(F)c4)nn3)[C@H]2O)cc1 [Example 115] , give its measured IC50 value.
**Result** 11100

(1) COc1cc(-n2cnnc2[C@@H]2O[C@H](CO)[C@H](O)[C@H](n3cc(-c4cc(F)c(F)c(F)c4)nn3)[C@H]2O)ccn1 [Example 133]
(2) Cc1nc2ccc(-n3ncnc3[C@@H]3O[C@H](CO)[C@H](O)[C@H](n4cc(C(=O)NC5CCCCC5)nn4)[C@H]3O)cc2s1 [Example 198]
**Query** Lab note: check whether 1 or 2 shows the higher recorded IC50. To answer, give the label that identifies your chosen option.
**Result** 2

----------
# measurement-target: His-tagged recombinant human Gal-3 (hGal-3) (Homo sapiens (Human))
# experimental-protocol: Gal-3 HTRF assay (His-tagged hGal-3 binding to B-ASF)
# measurement-parameters: HTRF, hGal-3 15 nM, B-ASF 15 nM; read-out: hGal-3 IC50
pIC50: −log10 of the molar value.
quantity-name: pIC50

**Query** Name the recorded pIC50 of the item COc1cccc(-c2cnnn2[C@@H]2O[C@H](CO)[C@H](O)[C@H](n3cc(-c4cc(F)c(F)c(F)c4)nn3)[C@H]2O)c1 in your answer.
**Result** 6.80

**Query** Specify measured pIC50 for Cc1nc2ccc(-n3cnnc3[C@@H]3O[C@H](CO)[C@H](O)[C@H](n4cc(-c5ccc(Br)c(F)c5)nn4)[C@H]3OCC(F)F)cc2s1 .
**Result** 7.14

**Query** Return pIC50 for the following compound: OC[C@H]1O[C@@H](n2ccc3cc(Cl)ccc32)[C@H](O)[C@@H](n2cc(-c3cc(F)c(F)c(F)c3)nn2)[C@H]1O
**Result** 5.00

**Query** Given the compound Cc1nc2cc(Cl)c(-n3ncnc3[C@@H]3O[C@H](CO)[C@H](O)[C@H](n4cc(-c5cc(F)c(F)c(F)c5)nn4)[C@H]3O)cc2s1 , write its reported pIC50.
**Result** 7.15

**Query** // Input: OC[C@H]1O[C@@H](c2nncn2-c2cccc3cc[nH]c23)[C@H](O)[C@@H](n2cc(-c3cc(F)c(F)c(F)c3)nn2)[C@H]1O . Output its pIC50 only.
**Result** 6.03

(A) O=C(O)c1cccc(-n2ncnc2[C@@H]2O[C@H](CO)[C@H](O)[C@H](n3cc(-c4cc(F)c(F)c(F)c4)nn3)[C@H]2O)c1
(B) OC[C@H]1O[C@@H](c2nncn2-c2ccc3ccccc3c2)[C@H](O)[C@@H](n2cc(-c3cc(F)c(F)c(F)c3)nn2)[C@H]1O
(C) Cc1nc2ccc(-n3ncnc3[C@H]3C[C@@H](n4cc(-c5cc(F)c(F)c(F)c5)nn4)[C@@H](O)[C@@H](CO)O3)cc2s1
**Query** Order field: pIC50 | Direction: descending (largest first) Rank them, then answer with their labels in that order.
**Result** C, B, A

----------
# measurement-target: His-tagged recombinant human Gal-3 (hGal-3) (Homo sapiens (Human), UniProt P17931)
# Sequence (P17931 whole entry): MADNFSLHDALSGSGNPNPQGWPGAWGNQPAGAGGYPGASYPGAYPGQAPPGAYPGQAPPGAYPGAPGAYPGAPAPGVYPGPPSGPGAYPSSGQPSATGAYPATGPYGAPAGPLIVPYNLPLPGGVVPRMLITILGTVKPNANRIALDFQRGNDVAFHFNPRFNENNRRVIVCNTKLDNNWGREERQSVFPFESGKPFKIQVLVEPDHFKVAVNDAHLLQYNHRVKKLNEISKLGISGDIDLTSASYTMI
# experimental-protocol: Gal-3 HTRF assay (His-tagged hGal-3 binding to B-ASF)
# measurement-parameters: HTRF, hGal-3 15 nM, B-ASF 15 nM; read-out: hGal-3 IC50
quantity-name: IC50 (nM)

**Query** Recall and state the measured IC50 for Cc1nc2ccc(-n3nc(CC(N)=O)nc3[C@@H]3O[C@H](CO)[C@H](O)[C@H](n4cc(-c5cc(F)c(F)c(F)c5)nn4)[C@H]3O)cc2s1 .
**Result** 120

**Query** # return recorded IC50 for entry Cc1nc2cc(-n3cnnc3[C@@H]3O[C@H](CO)[C@H](O)[C@H](n4cc(-c5cc(F)c(F)c(F)c5)nn4)[C@H]3O)ccc2n1C
**Result** 500

**Query** Hello, please tell me recorded IC50 for this one: Cc1nc2c(Cl)cc(-n3cnnc3[C@@H]3O[C@H](CO)[C@H](O)[C@H](n4cc(-c5cc(F)c(F)c(F)c5)nn4)[C@H]3O)cc2s1
**Result** 80

**Query** Report measured IC50; entry is OC[C@H]1O[C@@H](c2nncn2Cc2cccs2)[C@H](O)[C@@H](n2cc(-c3cc(F)c(F)c(F)c3)nn2)[C@H]1O
**Result** 1280

**Query** Please report IC50 for the following compound: OC[C@H]1O[C@@H](c2nncn2-c2ccc(-n3cccc3)cc2)[C@H](O)[C@@H](n2cc(-c3cc(F)c(F)c(F)c3)nn2)[C@H]1O
**Result** 520

(A) OC[C@H]1O[C@@H](c2nncn2-c2ccc(-n3ccnc3)cc2)[C@H](O)[C@@H](n2cc(-c3cc(F)c(F)c(F)c3)nn2)[C@H]1O
(B) OC[C@H]1O[C@@H](c2nncn2-c2cc(Cl)cc3cccnc23)[C@H](OCC(F)F)[C@@H](n2cc(-c3ccc(Br)c(F)c3)nn2)[C@H]1O
**Query** // which entry reports the smaller IC50, A or B ? Answer with the label corresponding to your selection.
**Result** B
(B: 130 nM, A: 1460 nM)

----------
# measurement-target: His-tagged recombinant human Gal-3 (hGal-3) (Homo sapiens (Human), UniProt P17931)
# experimental-protocol: Gal-3 HTRF assay (His-tagged hGal-3 binding to B-ASF);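 further: compounds preincubated 30 min with hGal-3, then 1 h with B-ASF, detection via terbium anti-His antibody and streptavidin d2. Control with B-ASF counts as full signal, omitting B-ASF as background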
# measurement-parameters: read-out: hGal IC50
quantity-name: IC50 (nM)

Answered cases to consult:
**Query** Check His-tagged recombinant human Gal-3 (hGal-3) (Homo sapiens (Human), UniProt P17931) data and give IC50 for Cc1nc([C@@H]2O[C@H](CO)[C@H](O)[C@H](n3cc(-c4cc(F)c(Br)c(F)c4)nn3)[C@H]2O)n(-c2cc(Cl)ccc2C2CC2)n1 .
**Result** 151

**Query** Look up and report measured IC50 (His-tagged recombinant human Gal-3 (hGal-3) (Homo sapiens (Human), UniProt P17931)) for the following compound: Cc1nc([C@@H]2O[C@H](CO)[C@H](O)[C@H](n3cc(-c4ccc(Br)c(F)c4)nn3)[C@H]2O)n(-c2cc(Cl)cc3cccnc23)n1
**Result** 46

**Query** Param request: IC50 | system His-tagged recombinant human Gal-3 (hGal-3) (Homo sapiens (Human), UniProt P17931) | item Cc1nc([C@@H]2O[C@H](CO)[C@H](O)[C@H](n3cc(-c4ccc(Br)c(F)c4)nn3)[C@H]2O)n(-c2cc(Cl)ccc2C2CC2)n1
**Result** 72

**Query** Report value: IC50, system: His-tagged recombinant human Gal-3 (hGal-3) (Homo sapiens (Human), UniProt P17931), compound: Cc1nc([C@@H]2O[C@H](CO)[C@H](O)[C@H](n3cc(-c4cc(F)c(Cl)c(Cl)c4)nn3)[C@H]2O)n(-c2cc(Cl)ccc2C(F)(F)F)n1
**Result** 20

(a) Cc1nc([C@@H]2O[C@H](CO)[C@H](O)[C@H](n3cc(-c4cc(F)c(Cl)c(F)c4)nn3)[C@H]2O)n(-c2cc3sc(C)nc3cc2C(F)(F)F)n1
(b) Cc1nc([C@@H]2O[C@H](CO)[C@H](O)[C@H](n3cc(-c4ccc(Cl)cc4F)nn3)[C@H]2O)n(-c2cc(Cl)ccc2C(F)(F)F)n1
**Query** Which value of IC50 is smaller, the one for a or the one for b ? State your choice using its label.
**Result** a
(a: 17 nM, b: 52 nM)

----------
# measurement-target: His-tagged recombinant human Gal-3 (hGal-3) (Homo sapiens (Human))
# experimental-protocol: Gal-3 HTRF assay (His-tagged hGal-3 binding to B-ASF)
# measurement-parameters: HTRF, hGal-3 15 nM, B-ASF 15 nM; read-out: hGal-3 IC50
quantity-name: IC50 (nM)

**Query** Report measured IC50; entry is OC[C@H]1O[C@@H](c2nncn2-c2cccc(OC(F)(F)F)c2)[C@H](O)[C@@H](n2cc(-c3cc(F)c(F)c(F)c3)nn2)[C@H]1O [Example 93]
**Result** 190

**Query** Please report the measured IC50 for OC[C@H]1O[C@@H](c2nncn2-c2ccc(Cl)c(C(F)(F)F)c2)[C@H](O)[C@@H](n2cc(-c3cc(F)c(F)c(F)c3)nn2)[C@H]1O [Example 87]
**Result** 100

**Query** State its IC50: OC[C@H]1O[C@@H](c2nncn2-c2ccc(F)cc2)[C@H](O)[C@@H](n2cc(-c3cc(F)c(F)c(F)c3)nn2)[C@H]1O [Example 85]
**Result** 440

**Query** Using known records, supply IC50 for CO[C@@H]1[C@@H](n2cc(-c3cc(F)c(F)c(F)c3)nn2)[C@@H](O)[C@@H](CO)O[C@H]1c1ncnn1-c1cccc(Cl)c1 [Example 54]
**Result** 83

**Query** Fill in IC50 for record Cc1nc2ccc(-n3cnnc3[C@@H]3O[C@H](CO)[C@H](O)[C@H](n4cc(-c5cc(F)c(Br)c(F)c5)nn4)[C@H]3OCC(F)F)cc2s1 [Example 321]
**Result** 53

**Query** Give the reported value of IC50 for this record: CS(=O)(=O)c1cc(-n2cnnc2[C@@H]2O[C@H](CO)[C@H](O)[C@H](n3cc(-c4cc(F)c(F)c(F)c4)nn3)[C@H]2O)ccc1F [Example 129]
**Result** 600

**Query** # return recorded IC50 for entry Cn1ncc2ccc(-n3cnnc3[C@@H]3O[C@H](CO)[C@H](O)[C@H](n4cc(-c5cc(F)c(F)c(F)c5)nn4)[C@H]3O)cc21 [Example 166]
**Result** 150

**Query** Answer with the recorded IC50 for the compound listed here: Cc1nc2ccc(-n3ncnc3[C@@H]3O[C@H](CO)[C@H](O)[C@H](n4cc(C(=O)NC5CCC5)nn4)[C@H]3O)cc2s1 [Example 199]
**Result** 360

(P) CC(C)Oc1cccc(-n2cnnc2[C@@H]2O[C@H](CO)[C@H](O)[C@H](n3cc(-c4cc(F)c(F)c(F)c4)nn3)[C@H]2O)c1 [Example 105]
(Q) Cc1nc([C@@H]2O[C@H](CO)[C@H](O)[C@H](n3cc(-c4cc(F)c(Cl)c(F)c4)nn3)[C@H]2O)n(-c2cc(Cl)ccc2C)n1 [Example 261]
(R) OC[C@H]1O[C@@H](c2nncn2-c2cccc(F)c2)[C@H](O)[C@@H](n2cc(-c3cc(F)c(F)c(F)c3)nn2)[C@H]1O [Example 154]
(S) Cc1nc2ccc(-n3nc(C(C)(C)O)nc3[C@H]3C[C@@H](n4cc(-c5cc(F)c(F)c(F)c5)nn4)[C@@H](O)[C@@H](CO)O3)cc2s1 [Example 270]
**Query** Could you please order the items by IC50, going from the lowest number to the highest? Labels, requested order.
**Result** Q, R, S, P
(Q: 20 nM, R: 80 nM, S: 170 nM, P: 330 nM)
